Below, each entry is listed with its recorded pKi.
Biological target: D-alanyl-D-alanine dipeptidase (Enterococcus faecium)
Sequence (Q06241 whole entry): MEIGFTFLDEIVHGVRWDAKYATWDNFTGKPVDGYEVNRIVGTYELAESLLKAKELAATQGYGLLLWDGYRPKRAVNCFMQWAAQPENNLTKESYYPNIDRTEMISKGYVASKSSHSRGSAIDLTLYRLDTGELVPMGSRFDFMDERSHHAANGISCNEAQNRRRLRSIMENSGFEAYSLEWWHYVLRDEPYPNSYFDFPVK
The read-out pKi is expressed as -log10 of concentration in moles per litre.

Example entries begin here.
# mol, tested target, value kind, measured value
data = [
    ("O=C(N[C@@H](C(=O)O)c1ccccc1)c1cccc(=S)n1O", "D-alanyl-D-alanine dipeptidase (Enterococcus faecium)", "pKi", 5.56),
    ("C[C@H](CP(=O)(O)[C@@H](C)N)C(=O)O", "D-alanyl-D-alanine dipeptidase (Enterococcus faecium)", "pKi", 5.82),
    ("C[C@@H](NC(=O)c1cccc(=S)n1O)C(=O)O", "D-alanyl-D-alanine dipeptidase (Enterococcus faecium)", "pKi", 5.16),
    ("CC(C)[C@H](CP(=O)(O)[C@@H](C)N)C(=O)O", "D-alanyl-D-alanine dipeptidase (Enterococcus faecium)", "pKi", 5.21),
]

Please look at the following compound next.
Prompt line: Which pKi is reported for this compound? `C[C@@H](N)P(=O)(O)C[C@H](C(=O)O)c1ccccc1`
Response line: 5.54

* * *

assay: Cytotoxicity against HEK293 cells after 72 hrs by MTT assay; assay type: cell-based; details: human
value kind: CC50 at 72 h (µM)
Reply with just the number (in µM).

# mol, value kind, measured value
measured = [
    ("CC1(C)S[C@@H]2[C@H](NC(=O)[C@H](N)c3ccc(O)cc3)C(=O)N2[C@H]1C(=O)O", "CC50 at 72 h", 24),
    ("C[C@@H](NC(=O)c1cccc(=S)n1O)C(=O)O", "CC50 at 72 h", 76),
]

Please look at the following compound next.
Prompt line: Which CC50 at 72 h is reported for this compound? `O=C(N[C@@H](C(=O)O)c1ccccc1)c1cccc(=S)n1O`
Response line: 64
